procedure-summary: small-molecule microarray binders of probe aDKK1, primary screen, biochemical, biotinylated probe, 635/667 nm fluorescence (AID 1099);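 also: score merges 667nm spot fluorescence with signal to noise across triplicate slides; reference of the scale not given here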
experimental-conditions: higher = more signal
composite z-score of -0.001 or higher: class 1. Under -0.001: class 0.

Example cases with answers are listed next.
CC(C)(C)OC(=O)CC[C@]1(C(=O)N2CCCCC2)COC(c2ccc(OCCCO)cc2)=N1 ... class 1
CO[C@H]1O[C@H](CO)[C@@H](OC(=O)Nc2ccc(C#N)cc2)[C@@H]2OC(=O)[C@H](Cc3cccc(Br)c3)C/C=C/C[C@@H](Cc3cccc(Br)c3)C(=O)O[C@@H]12 ... class 1
COCCOC(=O)N1C(=O)[C@@]2(c3cc(C#CC4(O)CCCCCC4)ccc31)[C@H](c1ccc(OCCO)cc1)N1[C@H](c3ccccc3)[C@H](c3ccccc3)OC(=O)[C@H]1[C@@H]2C(=O)Nc1nc2ccccc2s1 ... class 1
CCOC(=O)C[C@H]1[C@H](OC(=O)c2ccccc2-c2ccccc2)[C@@H](NC(=O)c2ccccc2)c2cc(OCCCO)ccc2N1C(=O)c1ccccc1 ... class 1
C=C(/C(=C/C[C@H](OC(=O)c1ccncc1)c1cccc(OCCO)c1)c1cnc2ccccc2c1)C(C)C ... class 0

stdin: Is reported composite z-score greater than or equal to -0.001 here: "Cc1ccc(F)cc1S(=O)(=O)N[C@@H]1CCN(Cc2cccc3[nH]ccc23)C1"
stdout: class 0

stdin: Is reported composite z-score greater than or equal to -0.001 here: "Cc1cccc([C@H]2C[C@H]3C(Br)=C[C@@H]2C(=O)[C@]32CO2)c1"
stdout: class 0

Recorded values, source PubChem BioAssay.
